Hey, just so you know, these numbers are from the supplement of paper PMC13380429.

System: Vero E6 infected with SARS-CoV-2
Experiment: SARS-CoV-2 infection rate relative to infected DMSO; higher = more infection, active = 60 or less
Details: 24 h
metric: SARS-CoV-2 infection rate (%)
Expressed in %, but write only the number.

Query: Name the recorded SARS-CoV-2 infection rate of the compound listed here: N#Cc1c(N)nc(SCc2csc(-c3ccc(Cl)cc3)n2)c(C#N)c1-c1ccc(OCCO)cc1 [capadenoson] (10 µM)
Reply: 115

Query: Name the recorded SARS-CoV-2 infection rate of the compound listed here: CC(C)(C)NC(=O)[C@@H]1CN(Cc2cccnc2)CCN1C[C@@H](O)C[C@@H](Cc1ccccc1)C(=O)N[C@H]1c2ccccc2C[C@H]1O [indinavir] (10 µM)
Reply: 110

Query: Name the recorded SARS-CoV-2 infection rate of the compound listed here: COc1ccc(/C=C/C(=O)O)cc1 [trans-4-methoxycinnamic-acid] (10 µM)
Reply: 106

Query: Name the recorded SARS-CoV-2 infection rate of the compound listed here: CNCCCOc1cc(F)c(-c2c(Cl)nc3ncnn3c2N[C@@H](C)C(F)(F)F)c(F)c1 [cevipabulin] (10 µM)
Reply: 92

Query: Name the recorded SARS-CoV-2 infection rate of the compound listed here: COc1ccc(CCCO[C@@H](Cn2ccnc2)c2ccc(OC)cc2)cc1 (0.833333 µM)
Reply: 107

Query: Name the recorded SARS-CoV-2 infection rate of the compound listed here: CNC[C@@H]1CC[C@@H](N)[C@@H](O[C@H]2[C@H](O)[C@@H](O[C@H]3OC[C@](C)(O)[C@H](NC)[C@H]3O)[C@H](N)C[C@@H]2N)O1 [micronomicin] (10 µM)
Reply: 96

Query: Name the recorded SARS-CoV-2 infection rate of the compound listed here: CC(C)c1ccc2oc3nc(N)c(C(=O)O)cc3c(=O)c2c1 [amlexanox] (10 µM)
Reply: 111

Query: Name the recorded SARS-CoV-2 infection rate of the compound listed here: CC(=O)Nc1nnc(S(N)(=O)=O)s1 [acetazolamide] (10 µM)
Reply: 85.5

Query: Name the recorded SARS-CoV-2 infection rate of the compound listed here: N=C(N)c1ccc(/N=N/Nc2ccc(C(=N)N)cc2)cc1 [diminazene-aceturate] (10 µM)
Reply: 86

Query: Name the recorded SARS-CoV-2 infection rate of the compound listed here: CC(C)N1Cc2cc(S(C)(=O)=O)ccc2N(CCN2CC=C(c3c[nH]c4cc(F)ccc34)CC2)S1(=O)=O (10 µM)
Reply: 97.5

Query: Name the recorded SARS-CoV-2 infection rate of the compound listed here: O=Cc1cn(Cc2ccc(Cl)cc2)c2ccccc12 [oncrasin-1] (10 µM)
Reply: 110

Query: Name the recorded SARS-CoV-2 infection rate of the compound listed here: O=C1c2ccccc2C(=O)C1c1ccc(Cl)cc1 [chlorindione] (10 µM)
Reply: 102

Query: Name the recorded SARS-CoV-2 infection rate of the compound listed here: C[C@H](N)Cc1cccc(O)c1 [gepefrine] (10 µM)
Reply: 106

Query: Name the recorded SARS-CoV-2 infection rate of the compound listed here: Cc1cc(CC(=O)O)n(C)c1C(=O)c1ccc(Cl)cc1 [zomepirac] (10 µM)
Reply: 104

Query: Name the recorded SARS-CoV-2 infection rate of the compound listed here: CCOc1ccc2nc(S(N)(=O)=O)sc2c1 [ethoxzolamide] (10 µM)
Reply: 97.5

Query: Name the recorded SARS-CoV-2 infection rate of the compound listed here: CC(C)c1cc(CNc2nc(Nc3cc(C4CC4)[nH]n3)cc(N3CCN(C)CC3)n2)on1 (10 µM)
Reply: 112

Query: Name the recorded SARS-CoV-2 infection rate of the compound listed here: CN1C(=O)N(C)C2C1N(C)C(=O)N2C (configuration not stated) [mebicar] (10 µM)
Reply: 107
